biological target: T1, Bio-C9V mutant; assay: phage ELISA: streptavidin plate coated with biotinylated peptide/HLA-A*02:01 monomer, phage detected with HRP-conjugated anti-M13 antibody, absorbance at 450 nm
T1 construct: also called biotinylated ESO157 C9V/HLA-A*02:01 complex monomer

BINDER | binding result
phage clone #52, anti-ESO157/HLA-A*02:01 scFv displayed on phage (scFv, V domains shown) VH: QVQLVQSGAEVKKPGASVKVSCKASGYTFTSYGISWVRQAPGQGLEWMGWISAYNGNTNYAQKLQGRVTMTTDTSTSTAYMELRSLRSDDTAVYYCARYSGYYAGDSWGQGTLVTVSS VL: QSVLTQPPSVSGAPGQRVTISCTGSSSNIGAGYDVHWYQQLPGTAPKLLIYGDTNRPSGVPDRISGSKSGTSASLAITGLQAEDEADYYCQSYDSNLYTYVFGTGTKVTVLG | binds
